- ASSAYED SYSTEM: D(2) dopamine receptor (Rattus norvegicus, UniProt P61169)
- Sequence (P61169 whole entry): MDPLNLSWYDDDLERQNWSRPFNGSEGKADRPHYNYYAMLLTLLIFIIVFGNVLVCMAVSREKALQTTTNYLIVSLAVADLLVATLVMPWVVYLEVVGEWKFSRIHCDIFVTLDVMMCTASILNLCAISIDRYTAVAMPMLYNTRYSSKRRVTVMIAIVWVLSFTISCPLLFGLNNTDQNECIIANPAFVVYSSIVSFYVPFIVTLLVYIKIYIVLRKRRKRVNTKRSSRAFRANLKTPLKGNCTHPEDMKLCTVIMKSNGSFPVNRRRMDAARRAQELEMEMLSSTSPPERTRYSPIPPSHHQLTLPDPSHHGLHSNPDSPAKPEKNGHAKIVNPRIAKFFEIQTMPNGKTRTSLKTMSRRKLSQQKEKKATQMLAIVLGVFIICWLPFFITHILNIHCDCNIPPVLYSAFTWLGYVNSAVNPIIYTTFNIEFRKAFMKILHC
- PROTOCOL DESCRIPTION: Displacement of [3H]raclopride from rat striatal dopamine D2 receptor
Provide the reported pIC50 of each item.
Recall that pIC50 is obtained by taking minus log10 of the concentration measured in molar.

Can you look up the measured pIC50 of `COc1ccc(C[C@H]2NCCc3cc(O)c(OC)cc32)cc1` for me?
5.30

Can you look up the measured pIC50 of `COc1cc2c(cc1O)[C@@H](Cc1ccc(O)cc1)NCC2` for me?
6.89

###

Provide the reported pIC50 of each item.
- ASSAYED SYSTEM: D(1A) dopamine receptor (Rattus norvegicus, UniProt P18901)
- Sequence (P18901 whole entry): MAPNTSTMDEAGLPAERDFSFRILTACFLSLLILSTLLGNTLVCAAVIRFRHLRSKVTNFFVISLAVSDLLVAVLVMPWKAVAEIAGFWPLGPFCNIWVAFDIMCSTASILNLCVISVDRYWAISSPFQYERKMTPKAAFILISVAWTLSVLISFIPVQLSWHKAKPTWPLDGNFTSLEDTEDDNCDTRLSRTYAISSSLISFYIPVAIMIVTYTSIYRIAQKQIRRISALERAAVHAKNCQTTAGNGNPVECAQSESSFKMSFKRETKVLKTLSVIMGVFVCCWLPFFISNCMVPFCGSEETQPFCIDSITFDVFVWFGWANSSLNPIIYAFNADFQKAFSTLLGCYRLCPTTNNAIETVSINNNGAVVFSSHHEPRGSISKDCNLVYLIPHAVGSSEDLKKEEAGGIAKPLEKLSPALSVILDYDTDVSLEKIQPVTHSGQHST
- PROTOCOL DESCRIPTION: Displacement of [3H]SCH-23390 from rat striatal dopamine D1 receptor
Recall that pIC50 is obtained by taking minus log10 of the concentration measured in molar.

Record lookup: for D(1A) dopamine receptor (Rattus norvegicus, UniProt P18901), what pIC50 belongs to `COc1ccc(C[C@H]2NCCc3cc(O)c(OC)cc32)cc1` ?
4.48

Record lookup: for D(1A) dopamine receptor (Rattus norvegicus, UniProt P18901), what pIC50 belongs to `COc1cc2c(cc1O)[C@@H](Cc1ccc(O)cc1)NCC2` ?
6.62
